Assay info: log D at pH 7.4 by an HPLC method
Format: physicochemical
Measured parameter: chromatographic logD

Compound	Readout number
CN1CCC(Nc2ccc(S(=O)(=O)NC(=O)c3ccc(N4CCN(CC5=C(c6ccc(Cl)cc6)CC(C)(C)CC5)CC4)cc3Oc3ccc4[nH]ccc4c3)cc2[N+](=O)[O-])CC1	6.69
CN1CCC[C@H]1C(=O)N1CCC(COc2ccc(S(=O)(=O)NC(=O)c3ccc(N4CCN(CC5=C(c6ccc(Cl)cc6)CC(C)(C)CC5)CC4)cc3Oc3cnc4[nH]ccc4c3)cc2Cl)CC1	6.47
CC1(C)CCC(CN2CCN(c3ccc(C(=O)NS(=O)(=O)c4ccc(OCC5(F)CCN(C6COC6)CC5)c(Cl)c4)c(Oc4cnc5[nH]ccc5c4)c3)CC2)=C(c2ccc(Cl)cc2)C1	5.48
CN1CCN(Nc2ccc(S(=O)(=O)NC(=O)c3ccc(N4CCN(CC5=C(c6ccc(Cl)cc6)CC(C)(C)CC5)CC4)cc3Oc3cnc4[nH]ccc4c3)cc2[N+](=O)[O-])CC1	5.74
CC1(C)CCC(CN2CCN(c3ccc(C(=O)NS(=O)(=O)c4cnc(OCC5(F)CCN(C6COC6)CC5)c(Cl)c4)c(Oc4cnc5[nH]ccc5c4)c3)CC2)=C(c2ccc(Cl)cc2)C1	5.26
CC1(C)CCC(CN2CCN(c3ccc(C(=O)NS(=O)(=O)c4cnc(NCC5(F)CCOCC5)c(Cl)c4)c(Oc4cnc5[nH]ccc5c4)c3)CC2)=C(c2ccc(Cl)cc2)C1	5.51
CC1(C)CCC(CN2CCN(c3ccc(C(=O)NS(=O)(=O)c4ccc(NCC5CCOCC5)c([N+](=O)[O-])c4)c(Oc4ccc5[nH]ccc5c4)c3)CC2)=C(c2ccc(Cl)cc2)C1	6.35
CC1(C)CCC(CN2CCN(c3ccc(C(=O)NS(=O)(=O)c4ccc(OCC5COCCO5)c([N+](=O)[O-])c4)c(Oc4ccc5[nH]ccc5c4)c3)CC2)=C(c2ccc(Cl)cc2)C1 (stereo not shown)	5.6
CC1(C)CCC(CN2CCN(c3ccc(C(=O)NS(=O)(=O)c4ccc(OC[C@H]5CC[C@H](N6CCOCC6)CC5)c(Cl)c4)c(Oc4cnc5[nH]ccc5c4)c3)CC2)=C(c2ccc(Cl)cc2)C1	6.24
CC1(C)CCC(CN2CCN(c3ccc(C(=O)NS(=O)(=O)c4ccc(OCC5CCOCC5)c([N+](=O)[O-])c4)c(Oc4cnc5[nH]ccc5c4)c3)CC2)=C(c2ccc(Cl)cc2)C1	5.72
